study-target: Cav3.2 (Homo sapiens (Human), UniProt O95180)
Sequence (O95180 whole entry): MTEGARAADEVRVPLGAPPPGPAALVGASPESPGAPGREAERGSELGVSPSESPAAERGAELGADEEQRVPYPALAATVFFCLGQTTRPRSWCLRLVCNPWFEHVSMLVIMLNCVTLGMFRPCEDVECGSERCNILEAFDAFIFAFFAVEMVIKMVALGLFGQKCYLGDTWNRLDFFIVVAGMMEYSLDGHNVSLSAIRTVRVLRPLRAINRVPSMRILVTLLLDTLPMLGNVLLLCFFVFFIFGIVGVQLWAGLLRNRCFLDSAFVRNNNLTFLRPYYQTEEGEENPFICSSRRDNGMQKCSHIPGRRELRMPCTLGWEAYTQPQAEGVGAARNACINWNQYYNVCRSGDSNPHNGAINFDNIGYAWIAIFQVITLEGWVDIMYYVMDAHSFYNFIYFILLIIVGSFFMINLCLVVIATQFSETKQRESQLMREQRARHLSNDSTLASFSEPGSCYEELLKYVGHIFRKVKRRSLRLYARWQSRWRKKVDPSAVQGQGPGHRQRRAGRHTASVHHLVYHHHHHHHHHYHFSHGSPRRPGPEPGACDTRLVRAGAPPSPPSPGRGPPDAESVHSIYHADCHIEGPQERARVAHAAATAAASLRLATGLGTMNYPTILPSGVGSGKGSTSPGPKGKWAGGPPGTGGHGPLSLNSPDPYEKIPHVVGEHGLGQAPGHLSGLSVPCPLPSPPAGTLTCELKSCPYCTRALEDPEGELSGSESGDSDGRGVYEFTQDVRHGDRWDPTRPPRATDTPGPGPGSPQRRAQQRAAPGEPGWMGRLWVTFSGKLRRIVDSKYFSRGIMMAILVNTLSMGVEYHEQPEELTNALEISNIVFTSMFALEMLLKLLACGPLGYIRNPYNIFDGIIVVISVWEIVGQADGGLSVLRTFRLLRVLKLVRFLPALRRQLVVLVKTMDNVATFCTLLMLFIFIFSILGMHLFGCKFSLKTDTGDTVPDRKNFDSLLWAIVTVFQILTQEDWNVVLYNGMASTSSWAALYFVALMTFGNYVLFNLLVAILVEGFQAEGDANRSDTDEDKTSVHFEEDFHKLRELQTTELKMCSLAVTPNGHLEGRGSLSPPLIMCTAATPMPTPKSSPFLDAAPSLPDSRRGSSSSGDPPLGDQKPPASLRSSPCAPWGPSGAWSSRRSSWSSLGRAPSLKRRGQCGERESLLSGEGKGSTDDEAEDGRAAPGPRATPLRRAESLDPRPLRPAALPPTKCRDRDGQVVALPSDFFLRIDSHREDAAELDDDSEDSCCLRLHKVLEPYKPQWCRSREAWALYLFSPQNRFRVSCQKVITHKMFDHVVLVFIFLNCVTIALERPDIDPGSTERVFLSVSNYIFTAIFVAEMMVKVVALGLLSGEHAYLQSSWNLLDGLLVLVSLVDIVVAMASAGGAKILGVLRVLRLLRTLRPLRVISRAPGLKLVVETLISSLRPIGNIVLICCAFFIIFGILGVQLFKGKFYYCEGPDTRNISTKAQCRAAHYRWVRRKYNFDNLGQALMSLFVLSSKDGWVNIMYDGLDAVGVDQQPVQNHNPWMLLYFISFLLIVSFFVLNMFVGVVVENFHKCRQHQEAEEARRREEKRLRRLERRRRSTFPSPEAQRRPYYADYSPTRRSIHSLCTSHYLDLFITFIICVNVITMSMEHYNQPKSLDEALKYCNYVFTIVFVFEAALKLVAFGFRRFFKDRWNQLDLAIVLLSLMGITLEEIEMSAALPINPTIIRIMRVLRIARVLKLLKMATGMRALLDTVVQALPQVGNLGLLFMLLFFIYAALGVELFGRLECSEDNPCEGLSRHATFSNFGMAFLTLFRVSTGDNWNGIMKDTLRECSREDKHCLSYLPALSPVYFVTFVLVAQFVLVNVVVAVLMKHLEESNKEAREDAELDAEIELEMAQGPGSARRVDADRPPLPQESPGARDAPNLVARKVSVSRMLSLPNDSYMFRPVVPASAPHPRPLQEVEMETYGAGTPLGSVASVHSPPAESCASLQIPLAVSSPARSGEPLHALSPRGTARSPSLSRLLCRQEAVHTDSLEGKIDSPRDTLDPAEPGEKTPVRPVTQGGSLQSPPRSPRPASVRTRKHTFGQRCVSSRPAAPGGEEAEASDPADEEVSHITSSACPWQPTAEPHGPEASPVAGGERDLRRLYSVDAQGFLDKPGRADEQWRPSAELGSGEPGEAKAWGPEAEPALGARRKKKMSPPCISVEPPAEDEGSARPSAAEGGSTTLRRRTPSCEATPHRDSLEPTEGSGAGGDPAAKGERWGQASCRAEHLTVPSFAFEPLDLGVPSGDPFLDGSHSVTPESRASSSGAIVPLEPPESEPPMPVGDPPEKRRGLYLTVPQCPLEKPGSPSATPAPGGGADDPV
assay-summary: In vitro patch clamp assay (SyncroPatch 384PE)
assay-setup: HEK293 cells
result-type: log10 of IC50 (log10 of the value in nM)
All values: base-10 log of IC50 in nM.

Here are 8 molecules together with their reported answers.
[[record]]
molecule = "CCCn1ncc2cc([C@@H](C)NC(=O)Cc3ccc(C(C)C)cc3)ncc21"
result_type = "log10 of IC50"
experimental_result = 2.04

[[record]]
molecule = "C[C@@H](NC(=O)Cc1ccc(C2CC2(F)F)cc1)c1cc2cnn(CC(F)(F)F)c2cn1 (single isomer, unassigned) [Example 30]"
result_type = "log10 of IC50"
experimental_result = 2.68

[[record]]
molecule = "Cc1c2ccc(CC(=O)N[C@H](C)c3cc4cnn(CC(F)(F)F)c4cn3)cc2nn1C"
result_type = "log10 of IC50"
experimental_result = 2.91

[[record]]
molecule = "C[C@@H](NC(=O)Cc1ccc(C2CC2)nc1)c1cc2cnn(-c3ccc(F)cc3)c2cn1"
result_type = "log10 of IC50"
experimental_result = 3.60

[[record]]
molecule = "C[C@@H](NC(=O)Cc1ccc(C2(C#N)CC2)cc1)c1cc2cnn(CC(F)(F)F)c2cn1"
result_type = "log10 of IC50"
experimental_result = 2.34

[[record]]
molecule = "C[C@@H](NC(=O)Cc1ccc(C(F)(F)F)cc1)c1cc2cnn(CC(C)(F)F)c2cn1"
result_type = "log10 of IC50"
experimental_result = 2.92

[[record]]
molecule = "C[C@@H](NC(=O)Cc1ccc(C(C)(F)F)c(Cl)c1)c1cc2cnn(CC(F)(F)F)c2cn1"
result_type = "log10 of IC50"
experimental_result = 1.92

[[record]]
molecule = "CC(C)c1ccc(CC(=O)N[C@H](C)c2ccc(OCC(F)(F)F)cn2)cc1"
result_type = "log10 of IC50"
experimental_result = 1.57


Now for another entry.
GET /values?readout=log10 of IC50&item= `[2H][C@](C)(NC(=O)Cc1ccc(C(F)(F)F)cc1)c1cc2cnn(CC(F)(F)F)c2cn1`
2.53

====

study-target: Cav3.2 (Homo sapiens (Human), UniProt O95180)
assay-summary: In vitro patch clamp assay (SyncroPatch 384PE)
assay-setup: HEK293 cells
Exercise: state measured pIC50 for each of the compounds provided.
Give bare numbers, as −log10 of the molar value.

Here are 2 compounds together with their reported answers.
[[record]]
compound = "C[C@@H](NC(=O)Cc1ccc(C(C)(F)F)nc1)c1cc2cnn(CC(F)(F)F)c2cn1 [Example 16]"
experimental_result = 5.90

[[record]]
compound = "Cc1noc2cc([C@@H](C)NC(=O)Cc3ccc(C(C)C)cc3)ncc12 [Example 5]"
experimental_result = 5.91


Now for another entry.
GET /values?readout=pIC50&item= C[C@@H](NC(=O)Cc1ccc(C(C)(F)F)cc1)c1cc2cnn(CC(C)(F)F)c2cn1 [Example 41]
6.14
